B1: Triacylglycerol hydrolase DDHD2, residues 389 to 447; numbered along this chain, O94830 (parent)
chain: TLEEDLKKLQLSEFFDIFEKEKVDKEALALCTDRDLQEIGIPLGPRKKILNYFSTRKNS

- Variants of: B1
- protocol_notes: abundance fitness (aPCA) (normalised: wild type 0, dead -1); higher = more abundant; growth selection in yeast, the domain comes from the species named
- experimental_context: Homo sapiens
Parameter abundance fitness: see the listing below.
Form field (numeric): enter value without unit.

F14N; -0.193
L30D; 0.423
K57H; -0.291
I49Q; -0.307
F53A; -0.282
P45G; -0.168

abundance fitness lookup needed for R34G , thanks.
0.201

abundance fitness lookup needed for K7V , thanks.
-0.43
